Assay: qHTS Assay for Modulators of Human Peripheral Myelin Protein 22 (PMP22) Expression/Activity (AID 1967)
Details: Cell-based PMP22 reporter, dual-color luciferase ratio, 0% = compound-free control cells, mouse Pmp22 promoter in mouse Schwann cells; series mostly up to 115 µM
Inconclusive results are not listed. Calls of active or inactive are those of the source. Calls follow the shape of the dose curve; as a rule, active = well fitted curve in the direction sought with a large enough effect in the signal ratio; inconclusive = small, poorly fitted or top-dose-only effect, or effect the other way, or a change in a side signal; inactive = no such curve, though single readings can be large or run the other way; the % refers to the signal ratio.
recordedMetric: outcome

CC1CN(S(=O)(=O)c2cccc3cnccc23)CCN1 (stereo not given)	inactive
O=C1O/C(=C/Br)CCC1c1cccc2ccccc12 (stereo not given)	inactive
CN(C)c1nc(N)c(C(=O)N=C(N)N)nc1Cl	inactive
CCCCCCCCCCCCCCCC(=O)OC(CC(=O)O)C[N+](C)(C)C (stereo not given)	inactive
CC(=O)N[C@H](C(=O)O)C(C)(C)SN=O	inactive

Param item = O=c1[nH]c2cc([N+](=O)[O-])c([N+](=O)[O-])cc2[nH]c1=O ; retrieve measured outcome. inactive

Here is the next compound: CCCCCCCCCCCCCCCC(=O)NCC(COP(=O)([O-])OCC[N+](C)(C)C)OCC (stereo not given) inactive
